- System: Target C CJ mRNA
- Experiment Summary: Gene panel canonical junction qPCR splicing assay, Target C
- Type: cell-based
- Measurement Context: Table 4, read-out: Target C IC50 (decrease in CJ mRNA levels)
pIC50: −log10 of the molar value.
The following compounds are listed with their measured pIC50 values.

Asked: Indicate its recorded pIC50; the compound in question is Cn1cc2cc(-c3ccc4nc(N5CC[C@@H](NC6(C)CC6)C5)ccc4n3)c(O)c(F)c2n1 (single isomer, unassigned)
Given back: > 7.00

Asked: Given "CC(C)N[C@H]1CCN(c2ccc3nc(-c4cc5cn(C)nc5cc4O)ccc3n2)C1" , respond with its pIC50.
Given back: 6.00 to 7.00

Asked: Please indicate pIC50 recorded for "Cn1cc2cc(-c3ccc4nc(C5CCNCC5)ccc4n3)c(C(F)F)cc2n1"
Given back: < 5.00

Below: the item to evaluate.
Asked: Give the reported pIC50 for this compound. Cn1cc2cc(-c3ccc4nc(N5CC[C@@H](NCC(F)(F)F)C5)ccc4n3)c(O)cc2n1 (stereo in doubt)
Given back: < 5.00

----------
Listed below: IC50 values for each entry.
- Tested on: HTT mRNA
- Experiment Summary: Splicing assay (RT-qPCR) of HTT mRNA alternative junction (AJ) and canonical junction (CJ)
- Format: cell-based
- Measurement Context: decrease in CJ mRNA; A673 or K562 cells, 24 hours; read-out: HTT CJ IC50

Please review the following examples before continuing.
Asked: Output measured IC50 for this item: "CN1CCN(c2ccc3nc(-c4cc5cn(C)nc5cc4O)ccc3n2)CC1"
Given back: 1000 to 10000 nM

Asked: Provide measured IC50 value, entry: "Cc1c(O)c(-c2ccc3nc(C4CCNCC4)ccc3n2)cc2cn(C)nc12"
Given back: < 100 nM

Asked: Answer with reported IC50 of Cc1cn2nc(-c3ccc4nc(N5CCC(NC(C)(C)C)C5)ccc4n3)c(O)c2c(C)n1 (stereo not drawn)
Given back: < 100 nM

Asked: Look up and state reported IC50 for "CC(C)N[C@@H]1CCN(c2ccc3nc(-c4cc5cn(C)nc5cc4O)ccc3n2)C1"
Given back: < 100 nM

Asked: Please indicate IC50 recorded for "c1c[nH]c(-c2ccc3nc(C4CCNCC4)ccc3n2)n1"
Given back: > 10000 nM

Further cases:
Asked: Check the records and state IC50 for Cc1c(O)c(-c2ccc3nc(N4CC[C@@H](NC5CC5)C4)ccc3n2)cc2cn(C)nc12 (single isomer, unassigned)
Given back: < 100 nM

Asked: Return value of IC50 for input "Cn1cc2cc(-c3ccc4nc(N5CCNC(C)(C)C5)ccc4n3)c(O)cc2n1" , no commentary.
Given back: 1000 to 10000 nM

----------
Quick list: IC50 per entry.
- Tested on: HTT mRNA
- Experiment Summary: Splicing assay (RT-qPCR) of HTT mRNA alternative junction (AJ) and canonical junction (CJ)
- Type: cell-based
- Measurement Context: 24 h, read-out: HTT CJ IC50 (nM)

# count of solved cases: 2
Asked: Answer with reported IC50 of Cc1cn2nc(-c3ccc4nc(N5CCC(NC(C)(C)C)C5)ccc4n3)cc(C)c2n1 (stereo not drawn) [Compound 186]
Given back: < 100 nM

Asked: Quick one: give measured IC50 for CC(C)N[C@H]1CCN(c2ccc3nc(-c4cc5cn(C)nc5cc4O)ccc3n2)C1 [Compound 171]
Given back: < 100 nM

Now turn to the next molecule.
Asked: Output IC50 of Cn1cc2cc(-c3ccc4nc(N5CC[C@H](NC6CCC6)C5)ccc4n3)c(O)cc2n1 [Compound 156]
Given back: < 100 nM

----------
Entries annotated with measured pIC50
- Test system: Target C CJ mRNA
- Experiment Summary: Gene panel canonical junction qPCR splicing assay, Target C
- Assay type: cell-based
- Measurement Context: Table 4, read-out: Target C IC50 (decrease in CJ mRNA levels)
pIC50: −log10 of the molar value. Structures can show the parent of a compound that is named as a salt.

Asked: Supply pIC50 value. Item: "Cc1nc2cc(O)c(-c3ccc4nc(N5CC[C@H](NC(C)(C)C)C5)ccc4n3)cc2o1"
Given back: > 7.00

Asked: Return pIC50 (reported value) for this compound: "c1c[nH]c(-c2ccc3nc(C4CCNCC4)ccc3n2)n1"
Given back: < 5.00

Asked: For Cc1cn2nc(-c3ccc4nc(N5CCC(NC(C)(C)C)C5)ccc4n3)cc(C)c2n1 (stereo not shown) , write its pIC50.
Given back: > 7.00

Asked: Provide measured pIC50 value, entry: "Cn1cc2cc(-c3ccc4nc(C5CCNCC5)ccc4n3)c(F)cc2n1"
Given back: 5.00 to 6.00

Asked: Using the record for "Cn1cc2cc(-c3ccc4nc(OC5CNC5)ccc4n3)c(O)cc2n1" , state its measured pIC50.
Given back: 5.00 to 6.00

Asked: Return value of pIC50 for input "CCNC1CCN(c2ccc3nc(-c4cc5cn(C)nc5cc4O)ccc3n2)CC1" , no commentary.
Given back: < 5.00

Asked: Entry Cc1cn2cc(-c3ccc4nc(C5CCNCC5)ccc4n3)c(O)c(C)c2n1 [Compound 151, hydrochloride] needs its pIC50 filled in; supply it.
Given back: 6.00 to 7.00

Asked: Identify measured pIC50 corresponding to "Cn1cc2cc(-c3ccc4nc(N5CCNCC5)ccc4n3)c(O)cc2n1"
Given back: 6.00 to 7.00

Asked: Check the records and state pIC50 for Cc1nc2cc(O)c(-c3ccc4nc(N5CC[C@H](NC(C)C)C5)ccc4n3)cc2o1 (single isomer, unassigned)
Given back: > 7.00

Asked: Give pIC50 for the following compound: "Cn1cc2cc(-c3ncc4nc(C5CCNCC5)ccc4n3)c(O)cc2n1"
Given back: 5.00 to 6.00

More entries:
Asked: Tell us which pIC50 value is on record for Cc1nc2cc(O)c(-c3ccc4nc(N5CCC(NC6CCC6)C5)ccc4n3)cc2o1 (single isomer, unassigned) [Compound 229]
Given back: 6.00 to 7.00

Asked: Indicate the recorded pIC50 value for this compound: "Cn1cc2cc(-c3ccc4nc(N5CC[C@@H](N[C@H]6C[C@H](F)C6)C5)ccc4n3)c(O)cc2n1"
Given back: > 7.00

Asked: Consider the compound CN(C)C1CCN(c2ccc3nc(-c4cc5cn(C)nc5cc4O)ccc3n2)C1 (stereo not shown) . State its measured pIC50.
Given back: 6.00 to 7.00

Asked: Entry Cn1cc2cc(-c3ccc4nc(N5CCC56CCNC6)ccc4n3)c(O)cc2n1 (stereo not shown) needs its pIC50 filled in; supply it.
Given back: < 5.00

Asked: Please supply the value of reported pIC50 for the item "Cn1cc2cc(-c3ccc4nc(N5CC[C@@H](NC6CC6)C5)ccc4n3)c(O)cc2n1"
Given back: 6.00 to 7.00

Asked: Please supply the value of reported pIC50 for the item "Cn1cc2cc(-c3ccc4nc(N5CC[C@H](NC6CC6)C5)ccc4n3)c(O)cc2n1"
Given back: 6.00 to 7.00

----------
- Tested on: SMN2 CJ mRNA
- Experiment Summary: Gene panel canonical junction qPCR splicing assay, SMN2
- Format: cell-based
- Measurement Context: Table 4, read-out: SMN2 IC50 (decrease in CJ mRNA levels)
pIC50: −log10 of the molar value.
Quick reference: pIC50 of the listed items.

Answered cases to consult:
Asked: Item Cc1nc2c(C)c(O)c(-c3ccc4nc(N5CCC(NC6CCC6)C5)ccc4n3)cc2o1 (stereo not shown) [Compound 235] : provide pIC50
Given back: > 7.00

Asked: For the compound Cc1nc2c(C)c(O)c(-c3ccc4nc(N5CCC(NC(C)(C)C)C5)ccc4n3)cc2o1 (single isomer, unassigned) , report pIC50.
Given back: > 7.00

Asked: Given "Cn1cc2cc(-c3ccc4nc(N5CC[C@H](NC(C)(C)C)C5)ccc4n3)c(O)cc2n1" , respond with its pIC50.
Given back: > 7.00

Asked: Specify pIC50 for "Cc1c(O)c(-c2ccc3nc(C4CCNCC4)ccc3n2)cc2cn(C)nc12" and stop.
Given back: > 7.00

Continuing:
Asked: Look up and report measured pIC50 for this entry: Cn1cc2cc(-c3cc4ccc(N5CCC(NC(C)(C)C)C5)nc4cn3)c(O)cc2n1 (stereo not shown)
Given back: 6.00 to 7.00

Asked: Indicate the recorded pIC50 value for this compound: "Cn1cc2cc(-c3ccc4cc(C5CCNCC5)c(F)cc4n3)c(O)cc2n1"
Given back: < 5.00

Asked: Please indicate pIC50 recorded for Cn1cc2cc(-c3ccc4nc(N5CC[C@@H](NC6(C)CC6)C5)ccc4n3)c(O)c(F)c2n1 (single isomer, unassigned)
Given back: > 7.00

----------
- Tested on: Target C CJ mRNA
- Experiment Summary: Gene panel canonical junction qPCR splicing assay, Target C
- Format: cell-based
- Measurement Context: Table 4, read-out: Target C IC50 (decrease in CJ mRNA levels)
Reported Metric: IC50

Example entries and their recorded answers appear below.
Asked: Name the value of IC50 reported for Cn1cc2cc(-c3ccc4nc(N5CCC6(CCN6)C5)ccc4n3)c(O)cc2n1 (centres unmarked) when tested on Target C CJ mRNA.
Given back: 1000 to 10000 nM

Asked: Specify the recorded IC50 for "Cn1cc2cc(-c3ccc4nc(N5CC[C@@H](NC6CCC6)C5)ccc4n3)c(O)cc2n1" , system: Target C CJ mRNA.
Given back: 100 to 1000 nM

Asked: Give the observed IC50 of Cn1cc2cc(-c3ccc4nc(N5CCC56CCCNC6)ccc4n3)c(O)cc2n1 (centres unmarked) for Target C CJ mRNA.
Given back: > 10000 nM

Asked: Specify IC50 for CN1CCCC2(CCN2c2ccc3nc(-c4cc5cn(C)nc5cc4O)ccc3n2)C1 (centres unmarked) , system Target C CJ mRNA.
Given back: > 10000 nM

Asked: Answer with IC50 of "CN[C@H]1CCN(c2ccc3nc(-c4cc5cn(C)nc5cc4O)ccc3n2)C1" measured for Target C CJ mRNA.
Given back: 100 to 1000 nM

Next:
Asked: Retrieve IC50 on Target C CJ mRNA; query Cn1cc2cc(-c3ccc4nc(N5CCC(N)C5)ccc4n3)c(O)c(F)c2n1 (centres unmarked)
Given back: < 100 nM

Asked: Retrieve IC50 on Target C CJ mRNA; query "Cc1nc2cc(O)c(-c3ccc4nc(N5CC[C@@H](NC(C)(C)C)C5)ccc4n3)cc2o1"
Given back: 1000 to 10000 nM

Asked: Report IC50 from Target C CJ mRNA testing of "Cn1cc2cc(-c3ccc4nc(N5CCC56CCNCC6)ccc4n3)c(O)cc2n1"
Given back: 100 to 1000 nM
